Task for the reader: assign each of the following variants its reported aptazyme ON/OFF ratio.
B1: Pistol ribozyme (parent)
chain: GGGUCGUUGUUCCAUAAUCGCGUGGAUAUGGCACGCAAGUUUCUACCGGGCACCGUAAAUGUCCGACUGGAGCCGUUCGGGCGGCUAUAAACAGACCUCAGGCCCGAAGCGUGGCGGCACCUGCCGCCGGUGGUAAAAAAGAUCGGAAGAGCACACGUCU

Variants of: B1
Experimental details: aptazyme ON/OFF ratio, guanine; higher = stronger switching; co-transcriptional cleavage with and without guanine
Give bare numbers.

Solved entries (count: 8):
# Mutation code, Measured value
measured = [
    ("U7C U8C G9C U10A U11C C13G", 1.1),
    ("G9U U10G C12U", 1.62),
    ("U7G U8G U11G", 2.52),
    ("U7C U8A G9A U11A C12U C13A", 1.32),
    ("U7G U8C G9C U10G U11A C13A", 1.05),
    ("U7G U8A G9A U11C", 1.03),
    ("U7A U8G G9U U11A C12A", 1.59),
    ("U7C G9U U10A U11A C12U", 1.36),
]

Provide reported aptazyme ON/OFF ratio for each item, in the same order as listed.
1. U7C U8A U10A
2. U7A U8A G9C U10G C12U C13U
3. U7A U8C G9A U10A U11C C12A
4. U8A G9C U10G C12A
5. U7G G9U U10A C12G C13U
6. U7C U8C G9A U10G U11A C12U C13U
7. U8G G9C U10G U11G C12A C13A

Reply:
[1.1, 1.32, 1.15, 1.18, 1.4, 1.23, 1.18]

Provide reported aptazyme ON/OFF ratio for each item, in the same order as listed.
1. U7G U8A G9U U10A C12U C13A
2. U7C U8C G9U U10G U11C C12G
3. U7A G9U U11C C12G C13G
4. U8A G9A U11A C12A C13A

Reply:
1. 1.07
2. 1.24
3. 1.12
4. 1.3

Provide reported aptazyme ON/OFF ratio for each item, in the same order as listed.
1. U7C U8C U10C U11G C13A
2. U7A U8A G9U U10G U11A C12U C13G
3. U7C U8G U11G C12G C13G
4. U7G U8C U11G
5. U7C G9C U10A U11A C12A C13A
6. U7C U8G U10C U11C C12A C13A
7. U7C U8A U10A U11A C12U
8. U7A U8G G9A U10G U11A C12G

Reply:
[1.2, 1.15, 1.08, 1.01, 1.09, 1.16, 1.26, 1.28]

Provide reported aptazyme ON/OFF ratio for each item, in the same order as listed.
1. U7C U8A G9C C12A C13G
2. U7A U11A C12G C13A
3. U8C U10A U11G C12U
4. U7A U8A G9A U10C C13U
5. U8A G9U U10G U11G C12G C13A

Reply:
1.05
1.08
1.33
1.09
1.05
